System: CP192
Test: qHTS profiling for inhibitors of Plasmodium falciparum proliferation (AID 504749); note: nearly all actives have a fitted effect of over 60% in size
Conditions: P. falciparum in erythrocytes, SYBR Green DNA, 72 h; series mostly up to 28.7 µM
Records with an inconclusive call do not appear. Activity calls are given as the source filed them. Calls come from the whole dose curve; as a rule, active = well fitted inhibition curve with a large enough effect; inconclusive = small, poorly fitted or top-dose-only effect; inactive = flat fitted curve, though single readings scatter.
// classify into active, inactive

Use the examples below as a reference point.
[
  {
    "Molecule": "O=C1NCN(c2ccccc2)C12CCN(CCCOc1ccc(F)cc1)CC2",
    "Measured on": "CP192",
    "Assigned class": "inactive"
  },
  {
    "Molecule": "CCCCCCCCCCCC[N+](C)(C)CCOc1ccccc1",
    "Measured on": "CP192",
    "Assigned class": "active"
  },
  {
    "Molecule": "CCN(CC)C(C)C(=O)c1ccccc1 (centres undefined)",
    "Measured on": "CP192",
    "Assigned class": "inactive"
  }
]

For the next question, use this molecule.
Could you please tell me the result logged for CN1CCc2cc(Cl)c(O)cc2[C@H]2c3ccccc3CC[C@@H]21 in this assay?
inactive

----------
Assay: Cell Viability - LYMP1-003 - Assay at 40 hr (AID 964); note: potency is the fitted concentration of half-maximal effect; nearly all actives have a fitted effect of over 60% in size
Conditions: LYMP1-003 lymphoblastoid viability; series mostly up to 92.2 µM
Description: NIH Chemical Genomics Center [NCGC] NIH Molecular Libraries Screening Centers Network [MLSCN] National Institutes of Environmental Health Sciences [NIEHS] National Toxicology Program [NTP] We have developed a 1536-well cell-based assay for quantitative high throughput screening (qHTS) against a number of cell lines to determine in vitro cytotoxicity of small molecules. […] 8. Detection; Luminescence; Viewlux plate reader […]
Records with an inconclusive call do not appear. Calls of active or inactive are those of the source. The call rests on the fitted dose curve; in most records, active means well fitted cell-killing curve with a large enough effect; inconclusive means small, poorly fitted or top-dose-only effect; inactive means flat fitted curve, though single readings scatter.
Quantity name: Potency

[
  {
    "Smiles text": "Oc1ccc(Cl)cc1Sc1cc(Cl)ccc1O",
    "Potency": "31.6 µM (active)"
  },
  {
    "Smiles text": "O=C(CCl)c1ccc(Cl)cc1Cl",
    "Potency": "20 µM (active)"
  },
  {
    "Smiles text": "CCCCCCCCCCCC[N+](C)(C)CCOc1ccccc1",
    "Potency": "31.6 µM (active)"
  },
  {
    "Smiles text": "CC[n+]1c(-c2ccccc2)c2cc(N)ccc2c2ccc(N)cc21",
    "Potency": "6.31 µM (active)"
  },
  {
    "Smiles text": "Oc1ccc(Cl)cc1Cc1cc(Cl)ccc1O",
    "Potency": "25.1 µM (active)"
  }
]

Value lookup for Potency; key = COC(=O)C1=C(C)NC(C)=C(C(=O)OC)C1c1ccccc1[N+](=O)[O-]
39.8 µM (active)

----------
Test system: HEK293
Test: Cytotoxic Profiling of Annotated Libraries Using Quantitative High-Throughput Screening (AID 1296008); note: nearly all actives have a fitted effect of over 60% in size
Conditions: Five cell lines viability, CellTiter-Glo ATP luminescence, 48-72 h
Records with an inconclusive call do not appear. Activity calls are given as the source filed them. The call rests on the fitted dose curve; in most records, active means well fitted inhibition curve with a large enough effect; inconclusive means small, poorly fitted or top-dose-only effect; inactive means flat fitted curve, though single readings scatter.
// classify into Y for active, N for inactive

Use the examples below as a reference point.
[
  {
    "Molecule": "CCO[C@H]1O[C@@H]2OC3(C)CC[C@H]4[C@H](C)CC[C@@H]([C@H]1C)[C@@]24OO3",
    "Assigned class": "Y"
  },
  {
    "Molecule": "ClC1=C(Cl)C2(Cl)C(CBr)CC1(Cl)C2(Cl)Cl (centres undefined)",
    "Assigned class": "N"
  },
  {
    "Molecule": "CCN1CCCC1CNC(=O)C(O)(c1ccccc1)c1ccccc1 (centres undefined)",
    "Assigned class": "N"
  }
]

Could you please tell me the result logged for CC(CC(C(N)=O)(c1ccccc1)c1ccccc1)N(C)C (centres undefined) in this assay?
N
